B1: glmS ribozyme (parent)
chain: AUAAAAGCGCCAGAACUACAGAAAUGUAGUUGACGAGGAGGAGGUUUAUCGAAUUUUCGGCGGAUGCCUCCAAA

# Variants of: B1
# TEST DESCRIPTION: self-cleavage kobs at 2500 uM GlcN6P; higher = faster cleavage; RNA array
# EXPERIMENTAL PARAMETERS: with glucosamine-6-phosphate
Variants at the floor of the assay were thinned out.
ASSAY METRIC: self-cleavage kobs at 2500 uM GlcN6P

Example entries begin here.
Recorded self-cleavage kobs at 2500 uM GlcN6P of C34A C50U , please.
< 1e-05 s⁻¹

Recorded self-cleavage kobs at 2500 uM GlcN6P of A6C C11A U47C , please.
< 1e-05 s⁻¹

Recorded self-cleavage kobs at 2500 uM GlcN6P of G51U A52G G59A , please.
< 1e-05 s⁻¹

Recorded self-cleavage kobs at 2500 uM GlcN6P of A6C C16G U45G G59U , please.
< 1e-05 s⁻¹

Recorded self-cleavage kobs at 2500 uM GlcN6P of A52C G59U , please.
< 1e-05 s⁻¹

Recorded self-cleavage kobs at 2500 uM GlcN6P of C10A C11U A33C U49G C67G , please.
< 1e-05 s⁻¹

Each of the following entries comes with a recorded value; kindly state self-cleavage kobs at 2500 uM GlcN6P for each.
1. U2C C16G A53C
2. A52C G59A
3. G40C C71G
4. A6U A14U G35C A39U U55A C58A
5. A6G A14U U30C A48U C67G C68G
6. C16U G37A

1. 0.000285 s⁻¹
2. < 1e-05 s⁻¹
3. 0.0203 s⁻¹
4. < 1e-05 s⁻¹
5. 7.37e-05 s⁻¹
6. 0.00123 s⁻¹

Each of the following entries comes with a recorded value; kindly state self-cleavage kobs at 2500 uM GlcN6P for each.
1. A6G G38A C50G U57G C68U
2. A39C A48U
3. C8A G40C
4. A33C G41A A42C G63C C67U
5. C10U C70G
6. A33C U49G U69C
7. U31C G40U A48G C61U
8. G7A G44U A48G

["8.04e-05 s⁻¹", "5.68e-05 s⁻¹", "< 1e-05 s⁻¹", "< 1e-05 s⁻¹", "2.76e-05 s⁻¹", "< 1e-05 s⁻¹", "< 1e-05 s⁻¹", "< 1e-05 s⁻¹"]

Each of the following entries comes with a recorded value; kindly state self-cleavage kobs at 2500 uM GlcN6P for each.
1. A6U C10A A14U C70U
2. G29C U46G U47A C70G
3. C16U C68G
4. C11U C16U C61U
5. G9A G32C C67A
6. G41U U55C C61G
7. G7U A48U
8. A33C G44C C58U C61A

["5.43e-05 s⁻¹", "6.12e-05 s⁻¹", "8.4e-05 s⁻¹", "< 1e-05 s⁻¹", "< 1e-05 s⁻¹", "< 1e-05 s⁻¹", "< 1e-05 s⁻¹", "< 1e-05 s⁻¹"]
